Measured values drawn from patent US8716355B2 for this set.

test system: T24; assay: MTT cytotoxicity, T24 bladder cancer cells; assay type: cell-based, human; conditions: Homo sapiens, T-24, 72 h, MTT; 3 days incubation; read-out: CD50 against T24

| compound | IC50, µM |
| --- | --- |
| Oc1ccc(C#Cc2ccc(O)cc2)cc1 [KST-201, 4,4′-dihydroxytolan] | 8.5 |

----------
System: DU145
Experiment: MTT cytotoxicity, DU145 prostate cancer cells
Format: cell-based, human
Conditions: MTT; 1 day incubation; read-out: CD50 against DU145
Description: As a first step, the antitumor activity of the tolans was assessed against a panel of three cancer cells lines that produce solid tumors upon implantation into animals. DU145 is an androgen-independent prostate cancer cells. T24 is a transitional cell bladder carcinoma cell. […] Cell killing was evaluated using the colorimetric MTT assay. […] The absorbance of this colored solution is quantified by measuring at a certain wavelength (usually between 500 and 600 nm) by a spectrophotometer. […]
pIC50: −log10 of the molar value.
Overview of reported pIC50 across a group of compounds:
endpoint label: pIC50

| compound | assay value |
| --- | --- |
| Oc1ccc(C#Cc2ccc(O)cc2)cc1 [KST-201, 4,4′-dihydroxytolan] | 4.24 |
| Oc1ccc(/C=C/c2cc(O)cc(O)c2)cc1 [Resveratrol, 3,5,4′-trihydroxy-trans-stilbene, reference compound] | 4.04 |

----------
Overview of reported IC50 across a group of compounds:
test system: MeWo; test: MTT cytotoxicity, MeWo melanoma; format: cell-based; conditions: Homo sapiens, 72 h, 3 Days, read-out: CD50 (μM) MeWo
endpoint label: IC50 (µM)

| compound | assay value |
| --- | --- |
| Oc1ccc(/C=C/c2cc(O)cc(O)c2)cc1 [Resveratrol, 3,5,4′-trihydroxy-trans-stilbene, reference compound] | 185 |
| Oc1ccc(C#Cc2ccc(O)cc2)cc1 [KST-201, 4,4′-dihydroxytolan] | 156 |

----------
system: Vero cells; assay: Cytotoxicity (CD50) on Vero cells; format: cell-based; settings: 48 hours of exposure

| compound | unit text | prefix operator | CD50 |
| --- | --- | --- | --- |
| Oc1cc(O)cc(/C=C/c2cc(O)cc(O)c2)c1 [Stil-4, tetrahydroxystilbene] | µM | > | 200 |
| Oc1ccc(/C=C/c2cc(O)cc(O)c2)cc1 [Resveratrol, 3,5,4′-trihydroxy-trans-stilbene, reference compound] | µM | = | 264 |
| Oc1cc(O)cc(C#Cc2cc(O)cc(O)c2)c1 [KST-401, 3,3′,5,5′-tetrahydroxytolan] | µM | = | 103 |

----------
Overview of reported IC50 across a group of molecules:
test system: HT29; assay: MTT cytotoxicity, HT29 colon; assay type: cell-based; conditions: Homo sapiens, HT-29, 72 h; 3 Days; read-out: CD50 (μM) HT29

| molecule | system name | IC50 (µM) |
| --- | --- | --- |
| Oc1ccc(/C=C/c2cc(O)cc(O)c2)cc1 [Resveratrol, 3,5,4′-trihydroxy-trans-stilbene, reference compound] | HT29 | 163 |
| Oc1ccc(C#Cc2ccc(O)cc2)cc1 [KST-201, 4,4′-dihydroxytolan] | HT29 | 79 |

----------
test system: T24; assay: MTT cytotoxicity, T24 bladder cancer cells; assay type: cell-based, human; settings: Homo sapiens, T-24, 48 h, VC:KST-201 200:1; 2 days; read-out: CD50 (μM) of each Compound tested in combination, T24

| compound | IC50 |
| --- | --- |
| Oc1ccc(C#Cc2ccc(O)cc2)cc1 [KST-201, 4,4′-dihydroxytolan] | 3.17 µM |
| O=C1O[C@H]([C@@H](O)CO)C([O-])=C1O.[Na+] [VC, sodium ascorbate, reference compound] | 634 µM |

----------
Overview of reported pIC50 across a group of compounds:
tested on: DU145; test: MTT cytotoxicity, DU145 prostate cancer cells; format: cell-based, human; conditions: Homo sapiens, DU-145, 72 h, MTT; 3 days incubation; read-out: CD50 against DU145
pIC50: −log10 of the molar value.

| compound | pIC50 |
| --- | --- |
| Oc1ccc(C#Cc2ccc(O)cc2)cc1 [KST-201, 4,4′-dihydroxytolan] | 5.03 |
| Oc1ccc(/C=C/c2cc(O)cc(O)c2)cc1 [Resveratrol, 3,5,4′-trihydroxy-trans-stilbene, reference compound] | 4.55 |

----------
tested on: HSV-1; assay: HSV-1 replication in infected Vero cells (plaque assay); format: cell-based, Herpes Simplex Virus-Type 1; settings: Human alphaherpesvirus 1, Vero, read-out: IC50, concentration at which 50% of HSV-1 replication was inhibited
endpoint label: IC50 (µM)

| molecule | endpoint label | assay value |
| --- | --- | --- |
| Oc1ccc(C#Cc2ccc(O)cc2)cc1 [KST-201, 4,4′-dihydroxytolan] | IC50 | 15.6 |
| Oc1ccc(/C=C/c2cc(O)cc(O)c2)cc1 [Resveratrol, 3,5,4′-trihydroxy-trans-stilbene, reference compound] | IC50 | 23.4 |

----------
Overview of reported pIC50 across a group of molecules:
test system: MDAH2274; test: MTT cytotoxicity, MDAH2274 ovarian cancer cells; type: cell-based, human; settings: Homo sapiens, 24 h, MTT; 1 day incubation; read-out: CD50 against MDAH, compound tested individually
pIC50: −log10 of the molar value.

| molecule | pIC50 |
| --- | --- |
| O=C1O[C@H]([C@@H](O)CO)C([O-])=C1O.[Na+] [VC, sodium ascorbate, reference compound] | 3.03 |
| Oc1ccc(C#Cc2ccc(O)cc2)cc1 [KST-201, 4,4′-dihydroxytolan] | 4.66 |
| Oc1ccc(/C=C/c2cc(O)cc(O)c2)cc1 [Resveratrol, 3,5,4′-trihydroxy-trans-stilbene, reference compound] | 4.43 |

----------
system: Mushroom tyrosinase; assay: Inhibition of mushroom tyrosinase activity; type: biochemical; settings: concentration not given
Overview of reported % inhibition of mushroom tyrosinase activity across a group of compounds:
endpoint label: % inhibition of mushroom tyrosinase activity (%)

| compound | system name | assay value |
| --- | --- | --- |
| Oc1ccc(/C=C/c2cc(O)cc(O)c2)cc1 [Resveratrol, 3,5,4′-trihydroxy-trans-stilbene, reference compound] | Mushroom tyrosinase | 59.9 |
| Oc1ccc(C#Cc2cc(O)cc(O)c2)cc1 [KST-301, 3,4′,5-trihydroxytolan] | Mushroom tyrosinase | 40.1 |
| Oc1cc(O)cc(C#Cc2cc(O)cc(O)c2)c1 [KST-401, 3,3′,5,5′-tetrahydroxytolan] | Mushroom tyrosinase | 22.7 |
| Oc1ccc(C#Cc2ccc(O)cc2)cc1 [KST-201, 4,4′-dihydroxytolan] | Mushroom tyrosinase | 59.2 |

----------
System: Vero cells
Test: Cytotoxicity (CD50) on Vero cells
Type: cell-based
Conditions: 48 hours of exposure
Excerpt: See Example II for tumor cell cytotoxicity of these compounds. […] NAB group 32 contains two compounds, Tolan-2 (also designated herein as KST-201) and Stil-2. Based on the NAB, they were classified as topological isomers. However, chemically they differ because Stil-2, a […], contained a double bonded linker, while Tolan-2 contained a triple bonded linker. The cytotoxicity of the two molecules on Vero cells differed markedly: Tolan-2 was less toxic than Stil-2.
Overview of reported CD50 across a group of molecules:

| molecule | CD50 (µM) |
| --- | --- |
| Oc1ccc(/C=C/c2ccccc2)cc1 | 131 |
| Oc1ccc(C#Cc2ccc(O)cc2)cc1 [KST-201, 4,4′-dihydroxytolan] | 106 |
| Oc1ccc(C#Cc2ccc(C(F)(F)F)cc2)cc1 [KST-213, 4-hydroxy-4′-trifluoromethyltolan] | 48.2 |
| Oc1ccc(C#Cc2cc(O)cc(O)c2)cc1 [KST-301, 3,4′,5-trihydroxytolan] | 350 |
| Oc1ccc(/C=C/c2ccc(O)cc2)cc1 | 53.3 |

----------
tested on: DU145; test: MTT cytotoxicity, DU145 prostate cancer cells; format: cell-based, human; details: Homo sapiens, DU-145, 48 h, MTT; 2 days incubation; read-out: CD50 against DU145
Overview of reported IC50 across a group of compounds:
endpoint label: IC50 (µM)

| compound | assay value |
| --- | --- |
| Oc1ccc(C#Cc2ccc(O)cc2)cc1 [KST-201, 4,4′-dihydroxytolan] | 16.8 |
| Oc1ccc(/C=C/c2cc(O)cc(O)c2)cc1 [Resveratrol, 3,5,4′-trihydroxy-trans-stilbene, reference compound] | 58.2 |

----------
system: Vero cells; assay: Cytotoxicity (CD50) on Vero cells; assay type: cell-based; conditions: 48 hours of exposure
# 1 (yes) = Log CD50 below 2 (exclusive); 0 (no) = Log CD50 at/above 2

| molecule | classification |
| --- | --- |
| Oc1ccc(C#Cc2ccc(C(F)(F)F)cc2)cc1 [KST-213, 4-hydroxy-4′-trifluoromethyltolan] | 1 (yes) |
| Oc1ccc(/C=C/c2ccc(O)cc2)cc1 [Stil-2] | 1 (yes) |
| Oc1ccc(C#Cc2cc(O)cc(O)c2)cc1 [KST-301, 3,4′,5-trihydroxytolan] | 0 (no) |
| Oc1cc(O)cc(/C=C/c2cc(O)cc(O)c2)c1 [Stil-4, tetrahydroxystilbene] | 0 (no) |
| Oc1ccc(/C=C/c2ccccc2)cc1 [Stil-1] | 0 (no) |
| Oc1ccc(/C=C/c2cc(O)cc(O)c2)cc1 [Resveratrol, 3,5,4′-trihydroxy-trans-stilbene, reference compound] | 0 (no) |
